target: T1, recombinant human IL-6 (human, UniProt P05231 30-212); assay: SPR Biacore, supernatant Ab on Protein A chip, IL-6 analyte, 25 C
T1 construct: Bought protein
T1 sequence (P05231 30-212 limits assumed): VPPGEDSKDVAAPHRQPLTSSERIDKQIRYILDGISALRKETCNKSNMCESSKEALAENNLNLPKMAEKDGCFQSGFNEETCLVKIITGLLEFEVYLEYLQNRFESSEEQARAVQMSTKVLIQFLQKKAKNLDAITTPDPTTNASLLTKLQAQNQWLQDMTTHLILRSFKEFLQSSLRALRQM
value-kind: Kd (nM)
Numeric only. Scale: nM

anti-IL-6 antibody, light chain L53H (heavy chain WT) (antibody, V domains shown, See note of m2; also called WT / L53H) VH: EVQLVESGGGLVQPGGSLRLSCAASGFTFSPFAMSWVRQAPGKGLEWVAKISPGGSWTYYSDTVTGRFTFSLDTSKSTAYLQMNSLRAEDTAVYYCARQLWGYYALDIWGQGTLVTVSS VL: DIQLTQSPSSLSASVGDRVTITCSASISVSYMYWYQQKPGKAPKLLIYDMSNHASGVPSRFSGSGSGTDFTLTISSLQPEDFATYYCMQWSGYPYTFGQGTKVEIK; 0.401

# input So what's the measured Kd for this one? anti-IL-6 antibody, light chain Y31F (heavy chain WT) (antibody, V domains shown, See note of m2; also called WT / Y31F) VH: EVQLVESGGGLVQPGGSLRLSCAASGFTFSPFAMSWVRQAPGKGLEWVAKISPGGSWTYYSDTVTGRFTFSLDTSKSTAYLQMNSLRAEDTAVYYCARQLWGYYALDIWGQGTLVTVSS VL: DIQLTQSPSSLSASVGDRVTITCSASISVSFMYWYQQKPGKAPKLLIYDMSNLASGVPSRFSGSGSGTDFTLTISSLQPEDFATYYCMQWSGYPYTFGQGTKVEIK
# output 0.472

# input # query: Kd of entry anti-IL-6 antibody, heavy chain variant I (M34I, G66D, I108V) / light chain variant V (M32L, M50D, M88Q) (antibody, V domains shown, See note of m39; also called M34I, G66D, I108V/ M32L, M50D, M88Q; I/V) VH: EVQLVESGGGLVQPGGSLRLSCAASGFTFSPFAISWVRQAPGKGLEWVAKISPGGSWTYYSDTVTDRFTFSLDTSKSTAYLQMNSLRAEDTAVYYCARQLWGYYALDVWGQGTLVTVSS VL: DIQLTQSPSSLSASVGDRVTITCSASISVSYLYWYQQKPGKAPKLLIYDDSNLASGVPSRFSGSGSGTDFTLTISSLQPEDFATYYCQQWSGYPYTFGQGTKVEIK
# output 0.386
